Conditions: in DMF, 383.38 K
Measured attribute: solubility (mole fraction)

Prompt line: Name the recorded solubility (mole fraction) of the molecule listed here: "COC(=O)c1ccc2cc(C(=O)OC)ccc2c1"
Response line: 0.0699

* * *

Settings: in DMSO, 405.07 K
Measured attribute: solubility (mole fraction)
One number for each entry.

Prompt line: Name the recorded solubility (mole fraction) of the compound listed here: "COC(=O)c1ccc2cc(C(=O)OC)ccc2c1"
Response line: 0.069

* * *

Conditions: in DMF, 329.65 K
Measured attribute: solubility (mole fraction)
Give bare numbers.

Prompt line: Name the recorded solubility (mole fraction) of the molecule listed here: "COC(=O)c1ccc2cc(C(=O)OC)ccc2c1"
Response line: 0.00884
